# assayedSystem: FGFR2 (Homo sapiens (Human))
# Sequence (P21802 22-821): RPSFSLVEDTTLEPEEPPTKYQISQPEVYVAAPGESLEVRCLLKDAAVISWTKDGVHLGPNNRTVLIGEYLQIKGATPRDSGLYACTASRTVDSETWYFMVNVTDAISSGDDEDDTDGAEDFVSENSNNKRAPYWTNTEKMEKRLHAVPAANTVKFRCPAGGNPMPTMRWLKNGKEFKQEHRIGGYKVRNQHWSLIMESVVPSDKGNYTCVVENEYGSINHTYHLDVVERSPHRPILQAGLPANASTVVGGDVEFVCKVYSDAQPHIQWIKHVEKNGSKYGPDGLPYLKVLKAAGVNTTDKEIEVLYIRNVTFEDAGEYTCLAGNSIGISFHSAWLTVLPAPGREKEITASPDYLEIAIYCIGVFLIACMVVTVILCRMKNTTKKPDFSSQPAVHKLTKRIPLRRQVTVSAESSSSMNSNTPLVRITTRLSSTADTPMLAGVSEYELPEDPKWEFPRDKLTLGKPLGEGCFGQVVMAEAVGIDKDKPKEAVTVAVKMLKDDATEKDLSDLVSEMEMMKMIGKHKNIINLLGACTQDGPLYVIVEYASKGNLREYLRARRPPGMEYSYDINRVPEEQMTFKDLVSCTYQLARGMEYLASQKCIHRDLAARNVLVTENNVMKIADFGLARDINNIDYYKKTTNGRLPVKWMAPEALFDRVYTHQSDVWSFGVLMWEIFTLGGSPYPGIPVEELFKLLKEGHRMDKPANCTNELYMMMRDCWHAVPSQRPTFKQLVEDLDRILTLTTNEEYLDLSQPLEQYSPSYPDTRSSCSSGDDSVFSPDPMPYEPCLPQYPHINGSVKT
# assayExplanation: FGFR2 Biochemical Caliper Assay
Entries and their measured IC50 follow.
reportedProperty: IC50

[[record]]
molecule = "C=CC(=O)N1CCC(c2c(-c3ccc(C(=O)N4CCOCC4)cc3)c3c(N)ncnc3n2C)C1 (stereo not shown)"
experimentalvalue = "1000 to 100000 nM"

[[record]]
molecule = "C=CC(=O)Nc1ccc(-c2c(C3=CCC(C(=O)N4CCCC4)CC3)c3c(N)ncnc3n2C)cc1 (stereo not shown)"
experimentalvalue = "< 100 nM"

[[record]]
molecule = "C=C(C)C(=O)Nc1ccc(-c2c(-c3ccc(Oc4nccc(C)n4)c(F)c3)c3c(N)ncnc3n2C)c(COC)c1"
experimentalvalue = "< 100 nM"

[[record]]
molecule = "C=C(C)C(=O)Nc1ccc(-c2c(-c3ccc(Cc4nn[nH]n4)cc3)c3c(N)ncnc3n2C)cc1"
experimentalvalue = "1000 to 100000 nM"

[[record]]
molecule = "C=C(C)C(=O)Nc1ccc(-c2c(-c3ccc(Oc4cncc(C)n4)c(F)c3)c3c(N)ncnc3n2C)cc1"
experimentalvalue = "< 100 nM"

[[record]]
molecule = "Cn1c(-c2ccc(C#N)nc2)c(-c2ccc(C(=O)N3CCCC3)cc2)c2c(N)ncnc21"
experimentalvalue = "1000 to 100000 nM"

[[record]]
molecule = "C=C(C)C(=O)Nc1ccc(-c2c(-c3ccc(Oc4cccc(C(F)(F)F)c4)nc3)c3c(N)ncnc3n2C)cc1"
experimentalvalue = "1000 to 100000 nM"

